target: isolated recombinant JAK2 kinase domain (Homo sapiens (Human), UniProt O60674); experiment: JAK2 enzyme assay (Caliper LabChip, peptide phosphorylation); conditions: 25 μM ATP
Sequence (O60674 849-1124): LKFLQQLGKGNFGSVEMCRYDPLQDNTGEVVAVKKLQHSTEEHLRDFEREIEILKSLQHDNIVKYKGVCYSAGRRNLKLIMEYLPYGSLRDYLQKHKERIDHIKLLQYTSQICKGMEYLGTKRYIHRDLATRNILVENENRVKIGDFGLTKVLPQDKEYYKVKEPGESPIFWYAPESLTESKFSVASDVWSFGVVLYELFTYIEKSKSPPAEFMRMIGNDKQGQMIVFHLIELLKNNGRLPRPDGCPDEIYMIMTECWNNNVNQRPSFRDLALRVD
pKi: −log10 of the molar value. Counter-ions that a name gives are not always drawn.
Measured Endpoint: pKi

[a] COC(=O)C1(C)CCN(CCN2CCN(C(=O)Cn3cc(NC(=O)c4cnn5cccnc45)c(-c4cc(Cl)ccc4OC(F)F)n3)CC2)CC1 [Example 335, formate]
[b] C[C@@H](NCCn1cc(NC(=O)c2cnn3cccnc23)c(-c2cc(Cl)ccc2OC(F)F)n1)c1ccccc1
Exam item: Please indicate which has the smaller reported pKi: a , or b . Please identify the chosen entry by its label.
Marked response: a
(a: 8.65, b: 9.64)
